Test system: Syrian golden hamster
Assay: Antihyperlipidemic activity measured by cholesterol level in golden syrian hamster at 100 mg/kg, po
Assay type: functional, Mesocricetus auratus
Activity below 10 mM gives not fulfilled; Activity at or above it gives fulfilled.

Study these solved cases before continuing.
OC[C@H]1O[C@](O)(CO)[C@@H](O[C@H]2OC[C@@H](O)[C@@H](O)[C@@H]2O)[C@@H]1O ... fulfilled
C[C@@H]1O[C@@H](O[C@H]2[C@H](O)[C@@H](CO)O[C@]2(O)CO)[C@H](O)[C@H](O)[C@H]1O ... not fulfilled
OC[C@H]1O[C@@](CO)(O[C@H]2O[C@H](CO)[C@@H](O)[C@H](O)[C@H]2O)[C@@H](O[C@H]2O[C@H](CO)[C@@H](O)[C@H](O)[C@H]2O)[C@@H]1O ... fulfilled
OC[C@H]1O[C@H](OC[C@H]2O[C@H](O[C@]3(CO)O[C@H](CO)[C@@H](O)[C@@H]3O)[C@H](O)[C@@H](O)[C@@H]2O)[C@H](O)[C@@H](O)[C@H]1O ... not fulfilled
OC[C@H]1O[C@@H](O[C@H]2[C@H](O)[C@@H](O)[C@H](O[C@H]3[C@H](O)[C@@H](CO)O[C@]3(O)CO)O[C@@H]2CO)[C@H](O)[C@@H](O)[C@H]1O ... fulfilled

query: Assess whether reported Activity for OC[C@H]1O[C@](O)(CO)[C@@H](O[C@@H]2OC[C@@H](O)[C@@H](O)[C@H]2O)[C@@H]1O sits at 10 mM or higher.
result: not fulfilled

query: Note, next up: OC[C@H]1O[C@](O)(CO)[C@@H](O[C@H]2O[C@H](CO)[C@@H](O)[C@H](O)[C@@H]2O)[C@@H]1O
result: fulfilled

query: Note, next up: OC[C@H]1O[C@](O)(CO)[C@@H](O[C@@H]2OC[C@@H](O)[C@H](O)[C@H]2O)[C@@H]1O
result: fulfilled

query: Note, next up: OC[C@H]1O[C@](O)(CO)[C@@H](O[C@@H]2O[C@H](CO)[C@@H](O[C@H]3O[C@H](CO)[C@@H](O)[C@H](O)[C@H]3O)[C@H](O)[C@H]2O)[C@@H]1O
result: fulfilled

query: Note, next up: OC[C@H]1O[C@@H](O[C@H]2[C@H](O)[C@@H](CO)O[C@]2(O)CO)[C@H](O)[C@@H](O)[C@H]1O
result: fulfilled
